tested on: biotinyl-Ile-oxazolone; assay: self-aminoacylation, catalytic enhancement (BIO) (fold over background); higher = more active; k-Seq, kA / k0A0; sequences stand for … in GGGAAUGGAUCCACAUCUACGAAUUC…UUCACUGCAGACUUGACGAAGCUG
Variants at the floor of the assay were thinned out.
Consider the following sequences and their measured self-aminoacylation readings.

# itemSequence, self-aminoacylation
records = [
    ("AUGCACCUAGGUCGUCGGGUG [Fam2.2 aminoacylation ribozyme variant]", 1.68),
    ("CUACUUCAAACAAUAGGUCAG [Fam1A.1 aminoacylation ribozyme variant]", 0.688),
    ("AAGUUUGCUAGAAGUCGCAAG [Fam3.1 aminoacylation ribozyme variant]", 0.674),
    ("AUUACCGUGGUCAUCGAGUGG [Fam2.1 aminoacylation ribozyme variant]", 1.27),
    ("GAGAUUGCUAAUAGUCGCAAG [Fam3.1 aminoacylation ribozyme variant]", 1.88),
]
